# target entity: T1, natural Fel d1 (Indoor Biotech, #NA-FD1-2) (cat, UniProt P30438 23-92; P30440 18-109)
# T1 construct: Bought natural heterodimeric glycoprotein, chains linked by disulfide bonds; also called nFel d1; nFel d 1
# T1 sequence (P30438 other isoform, or with tags, fused parts or gaps, chain 1 of 2): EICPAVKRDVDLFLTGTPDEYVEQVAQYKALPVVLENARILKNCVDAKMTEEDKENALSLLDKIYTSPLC
# T1 sequence (P30440 18-109, chain 2 of 2): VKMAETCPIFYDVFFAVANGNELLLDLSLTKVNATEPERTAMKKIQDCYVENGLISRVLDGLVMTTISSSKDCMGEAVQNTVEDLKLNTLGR
# assay overview: SPR (Biacore), mAb captured, natural Fel d1 injected, 25 C;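 further: rate constants obtained by fitting association and dissociation phases to a one-to-one binding model, with Kd and half-life derived from those rate constants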
metric name: t1/2 (min)
Just the number please, in min, no unit attached.

Name the reported t1/2 value associated with the binder H2M1236N (antibody, mouse IgG2, V domains shown, chimeric: human variable domains, mouse IgG2 Fc (H2M prefix)) VH: QVQLQESGPGLVKPSETLSLTCTVSGGSISNYYWSWIRQPPGKGLEWIGYIYYSGRTNYNPSLKSRVTISVDTSKNQFSLKLRSVTAADTAVYYCARHRITRTADSFDYWGQGTLVTVSS VL: DIQMTQSPSSLSASVGDRVTITCQASQDITNYLNWYQQKPGKAPKLLIYDASNLETGVPSRFSGSGSGTDFTFTISSLQPEDVATFYCHQYGDLPYTFGQGTKLEIK
8

Would you kindly repeat that for H4H2607B (antibody, human IgG4, V domains shown, human IgG4 Fc (H4H prefix)) VH: EVQLVESGGGLVKPGGSLRLSCAASGFTFSDYYMNWIRQAPGKGLEWISYLSSSGSATYYADSVKGRFTISRDNAKNSLYLQMNSLRAEDTAVYYCARDGKYNTVAGDYWGQGTTVTVSS VL: DIQLTQSPSSLSASVGDRVTITCRASQGIRNDLGWYQQKPGKAPKRLIYAASSLQSGVPSRFSGSGSGTEFTLTISSLQPEDFATYYCLQHNSYPYTFGQGTKVEIKR ?
13
